Source listed as paper PMC9120017.

target: mouse TMEM16A mutant K603Q (Mus musculus, UniProt Q8BHY3, K603Q); construct: expressed in transfected cells; host or cells: HEK293T; assay: Inside-out patch recording of 1PBC block, mutant K603Q; format: cell-based; details: K603Q; V 100 mV
METRIC_NAME: pIC50
Would you please state pIC50, meaning minus log10 of the concentration in mol/L, as a bare number?

Per the record, N#Cc1c(C(F)(F)F)cc(O)n2c1nc1ccccc12 has pIC50 of 3.71

---

molecular target: mouse TMEM16A mutant V543A (Mus musculus, UniProt Q8BHY3, V543A); construct: expressed in transfected cells; host or cells: HEK293T; assay: Inside-out patch recording of 1PBC block, mutant V543A; assay type: cell-based; settings: V543A; V -100 mV
METRIC_NAME: IC50 (µM)
Unit µM implied. Number only.

Per the record, N#Cc1c(C(F)(F)F)cc(O)n2c1nc1ccccc12 has IC50 of 25.7

---

molecular target: mouse TMEM16A mutant N546A (Mus musculus, UniProt Q8BHY3, N546A); construct: expressed in transfected cells; host or cells: HEK293T; experiment: Inside-out patch recording of 1PBC block, mutant N546A; assay type: cell-based; details: 60 mV; 2 µM Ca2+
METRIC_NAME: pIC50
Would you please state pIC50, meaning minus log10 of the concentration in mol/L, as a bare number?

Per the record, N#Cc1c(C(F)(F)F)cc(O)n2c1nc1ccccc12 has pIC50 of 6.57

---

target: mouse TMEM16A mutant I512A (Mus musculus, UniProt Q8BHY3, I512A); construct: expressed in transfected cells; host or cells: HEK293T; assay: Inside-out patch recording of 1PBC block, mutant I512A; format: cell-based; conditions: -60 mV; 2 µM Ca2+
METRIC_NAME: IC50 (µM)
Unit µM implied. Number only.

Per the record, N#Cc1c(C(F)(F)F)cc(O)n2c1nc1ccccc12 [1PBC] has IC50 of 50.1

---

molecular target: mouse TMEM16A mutant Y598A (Mus musculus, UniProt Q8BHY3, Y598A); construct: expressed in transfected cells; host or cells: HEK293T; test: Inside-out patch recording of 1PBC block, mutant Y598A; type: cell-based; conditions: Y598A; V 140 mV
METRIC_NAME: IC50 (µM)
Unit µM implied. Number only.

// returns IC50 for N#Cc1c(C(F)(F)F)cc(O)n2c1nc1ccccc12 [1PBC] with mouse TMEM16A mutant Y598A (Mus musculus, UniProt Q8BHY3, Y598A); value = 3.81

---

target: mouse TMEM16A mutant V599A (Mus musculus, UniProt Q8BHY3, V599A); construct: expressed in transfected cells; host or cells: HEK293T; test: Inside-out patch recording of 1PBC block, mutant V599A; assay type: cell-based; conditions: 140 mV; 15 µM Ca2+
METRIC_NAME: IC50 (µM)
Unit µM implied. Number only.

// returns IC50 for N#Cc1c(C(F)(F)F)cc(O)n2c1nc1ccccc12 with mouse TMEM16A mutant V599A (Mus musculus, UniProt Q8BHY3, V599A); value = 48.5

---

Target: mouse TMEM16A mutant V599A (Mus musculus, UniProt Q8BHY3, V599A)
Construct: expressed in transfected cells; host or cells: HEK293T
Sequence (Q8BHY3 1-960 V599A): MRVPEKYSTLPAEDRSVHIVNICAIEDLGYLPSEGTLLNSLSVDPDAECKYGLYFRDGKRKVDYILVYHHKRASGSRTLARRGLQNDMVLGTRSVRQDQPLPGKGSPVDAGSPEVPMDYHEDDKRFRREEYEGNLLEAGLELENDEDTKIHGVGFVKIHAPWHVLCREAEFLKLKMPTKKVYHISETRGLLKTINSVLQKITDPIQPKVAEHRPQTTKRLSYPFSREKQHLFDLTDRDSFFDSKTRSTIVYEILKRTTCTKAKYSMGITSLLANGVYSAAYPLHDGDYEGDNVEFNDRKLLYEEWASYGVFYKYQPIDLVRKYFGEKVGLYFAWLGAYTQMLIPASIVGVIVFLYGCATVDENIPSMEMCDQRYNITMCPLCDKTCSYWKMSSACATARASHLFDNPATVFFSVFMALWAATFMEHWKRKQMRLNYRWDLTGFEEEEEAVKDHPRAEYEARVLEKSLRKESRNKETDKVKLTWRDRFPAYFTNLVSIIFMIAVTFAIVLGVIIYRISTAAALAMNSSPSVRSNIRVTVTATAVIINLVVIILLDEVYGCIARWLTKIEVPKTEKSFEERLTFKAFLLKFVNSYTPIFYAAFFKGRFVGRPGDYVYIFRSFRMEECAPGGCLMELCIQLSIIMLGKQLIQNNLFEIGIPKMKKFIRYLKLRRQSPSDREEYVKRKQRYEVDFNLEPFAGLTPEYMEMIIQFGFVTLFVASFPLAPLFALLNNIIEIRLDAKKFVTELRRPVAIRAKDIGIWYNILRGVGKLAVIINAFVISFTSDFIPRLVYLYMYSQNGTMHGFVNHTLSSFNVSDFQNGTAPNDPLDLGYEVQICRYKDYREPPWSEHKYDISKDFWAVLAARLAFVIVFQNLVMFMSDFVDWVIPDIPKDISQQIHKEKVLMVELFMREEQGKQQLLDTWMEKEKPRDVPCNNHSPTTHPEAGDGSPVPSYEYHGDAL
Assay: Inside-out patch recording of 1PBC block, mutant V599A
Assay type: cell-based
Conditions: V599A; V -40 mV
METRIC_NAME: pIC50
Would you please state pIC50, meaning minus log10 of the concentration in mol/L, as a bare number?

Per the record, N#Cc1c(C(F)(F)F)cc(O)n2c1nc1ccccc12 [1PBC] has pIC50 of 4.06

---

Target: mouse TMEM16A mutant S517A (Mus musculus, UniProt Q8BHY3, S517A)
Construct: expressed in transfected cells; host or cells: HEK293T
Sequence (Q8BHY3 1-960 S517A): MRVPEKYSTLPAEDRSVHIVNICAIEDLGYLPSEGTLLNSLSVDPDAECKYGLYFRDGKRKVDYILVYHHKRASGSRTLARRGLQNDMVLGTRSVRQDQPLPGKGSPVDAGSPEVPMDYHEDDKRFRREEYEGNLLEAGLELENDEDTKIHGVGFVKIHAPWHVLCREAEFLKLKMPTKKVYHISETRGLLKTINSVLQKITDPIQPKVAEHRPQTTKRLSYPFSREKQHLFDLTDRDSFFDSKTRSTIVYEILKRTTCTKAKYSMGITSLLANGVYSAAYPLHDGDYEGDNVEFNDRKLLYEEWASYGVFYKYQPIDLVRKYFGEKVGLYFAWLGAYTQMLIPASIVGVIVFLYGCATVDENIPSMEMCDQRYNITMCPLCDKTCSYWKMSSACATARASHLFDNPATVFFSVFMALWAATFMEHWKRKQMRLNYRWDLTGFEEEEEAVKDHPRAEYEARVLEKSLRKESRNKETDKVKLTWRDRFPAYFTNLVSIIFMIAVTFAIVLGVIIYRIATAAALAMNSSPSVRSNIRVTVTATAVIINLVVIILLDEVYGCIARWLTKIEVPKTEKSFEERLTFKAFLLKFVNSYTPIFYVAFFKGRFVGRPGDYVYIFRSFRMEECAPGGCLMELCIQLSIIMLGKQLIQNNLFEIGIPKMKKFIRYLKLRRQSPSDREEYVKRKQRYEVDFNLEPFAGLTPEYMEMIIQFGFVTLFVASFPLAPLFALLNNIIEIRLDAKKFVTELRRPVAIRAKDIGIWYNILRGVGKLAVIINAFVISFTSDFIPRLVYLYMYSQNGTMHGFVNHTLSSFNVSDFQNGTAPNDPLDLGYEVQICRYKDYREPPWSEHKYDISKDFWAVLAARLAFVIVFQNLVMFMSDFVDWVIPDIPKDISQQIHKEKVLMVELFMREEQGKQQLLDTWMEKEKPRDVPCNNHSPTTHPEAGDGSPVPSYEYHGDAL
Assay: Inside-out patch recording of 1PBC block, mutant S517A
Assay type: cell-based
Settings: -40 mV; 2 µM Ca2+
METRIC_NAME: pIC50
Would you please state pIC50, meaning minus log10 of the concentration in mol/L, as a bare number?

// returns pIC50 for N#Cc1c(C(F)(F)F)cc(O)n2c1nc1ccccc12 with mouse TMEM16A mutant S517A (Mus musculus, UniProt Q8BHY3, S517A); value = 5.09

---

Biological target: mouse TMEM16A mutant V599A (Mus musculus, UniProt Q8BHY3, V599A)
Construct: expressed in transfected cells; host or cells: HEK293T
Test: Inside-out patch recording of 1PBC block, mutant V599A
Type: cell-based
Conditions: V599A; V 140 mV
Method: HEK293T cells (ATCC CRL-1573) were maintained in Dulbecco’s modified Eagle’s medium (DMEM; Sigma-Aldrich) supplemented with 10 U ml^−1 penicillin, 0.1 mg ml^−1 streptomycin (Sigma-Aldrich), 2 mM L-glutamine (Sigma-Aldrich), and 10% FBS (Sigma-Aldrich) in a humidified atmosphere containing 5% CO2 at 37 °C. […]
METRIC_NAME: pIC50
Would you please state pIC50, meaning minus log10 of the concentration in mol/L, as a bare number?

// returns pIC50 for N#Cc1c(C(F)(F)F)cc(O)n2c1nc1ccccc12 with mouse TMEM16A mutant V599A (Mus musculus, UniProt Q8BHY3, V599A); value = 4.31
